Tested on: cats
Assay: Determination of the hypotensive and positive inotropic activity in the cat
Format: in vivo
Conditions: 0.1 mg/kg i.v.
Description: TEST 2. DETERMINATION OF THE HYPOTENSIVE AND POSITIVE INOTROPIC ACTIVITY IN THE CAT The tests were performed in cats which were anesthetized with pentobarbital sodium (40 mg/kg i.p.). The animals breathed spontaneously. The arterial blood pressure was measured in the aorta abdominalis by a Statham pressure transducer (P 23 Dc). The positive inotropic effect was determined by measuring the pressure in the left […] by means of a catheter tipmanometer (Millar PC 350 A). […]
Counter-ions that a name gives are not always drawn.
Each entry below lists one item and its recorded Duration of action value.

CC1CC(=O)NN=C1c1ccc2[nH]c(C(F)(F)F)nc2c1 (stereo not drawn) | > 55 min

**Q:** Requested read-out Duration of action, target or system cats, entry CSc1nc2cc(C3=NNC(=O)CC3C)ccc2[nH]1 (stereo not drawn)
**A:** > 28 min

**Q:** Requested read-out Duration of action, target or system cats, entry Cc1nc2cc(C3=NNC(=O)CC3C)ccc2n1Cc1ccccc1 (stereo not drawn)
**A:** > 62 min

**Q:** Requested read-out Duration of action, target or system cats, entry Cc1nc2cc(C3=NNC(=O)CC3C)ccc2[nH]1 (stereo not drawn)
**A:** > 24 min

**Q:** Requested read-out Duration of action, target or system cats, entry COc1ccc(-c2nc3ccc(C4=NNC(=O)CC4C)cc3[nH]2)cc1 (stereo not drawn)
**A:** > 26 min

**Q:** Requested read-out Duration of action, target or system cats, entry CCCC(C)c1nc2cc(C3=NNC(=O)CC3C)ccc2[nH]1 (stereo not drawn) [I, hydrochloride]
**A:** > 53 min
